Attribution: paper PMC4601594

EXPERIMENTAL SYSTEM: citrate synthase (TpCSH6-H222Q) (Thermoplasma acidophilum, UniProt P21553, H223Q)
Construct: full-length TpCS with C-terminal His6 tag, H222Q mutant
Sequence (P21553 2-385 H223Q): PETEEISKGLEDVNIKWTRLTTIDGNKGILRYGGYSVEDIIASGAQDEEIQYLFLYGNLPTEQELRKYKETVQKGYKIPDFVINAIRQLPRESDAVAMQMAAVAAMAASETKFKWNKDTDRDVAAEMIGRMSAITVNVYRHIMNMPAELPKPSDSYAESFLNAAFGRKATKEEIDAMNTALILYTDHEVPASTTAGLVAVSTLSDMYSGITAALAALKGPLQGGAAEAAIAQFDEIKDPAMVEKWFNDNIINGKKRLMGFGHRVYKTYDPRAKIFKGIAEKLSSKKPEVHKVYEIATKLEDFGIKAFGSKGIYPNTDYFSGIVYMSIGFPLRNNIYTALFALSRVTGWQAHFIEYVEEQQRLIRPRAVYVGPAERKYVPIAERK
PROCEDURE TEXT: fluorescence titration (Trp348 quenching)
OBSERVABLE: pKd
Quick note: pKd values are minus log10 of concentrations in mol/L.

In: Please report the measured pKd for O=C(O)CC(=O)C(=O)O [OAA, oxaloacetate]
Out: 4.72

###

EXPERIMENTAL SYSTEM: citrate synthase (TpCSH6) (Thermoplasma acidophilum)
Construct: gene gltA; full-length TpCS (lacking N-terminal Met) with C-terminal His6 tag (TpCSH6)
Sequence (P21553 2-385): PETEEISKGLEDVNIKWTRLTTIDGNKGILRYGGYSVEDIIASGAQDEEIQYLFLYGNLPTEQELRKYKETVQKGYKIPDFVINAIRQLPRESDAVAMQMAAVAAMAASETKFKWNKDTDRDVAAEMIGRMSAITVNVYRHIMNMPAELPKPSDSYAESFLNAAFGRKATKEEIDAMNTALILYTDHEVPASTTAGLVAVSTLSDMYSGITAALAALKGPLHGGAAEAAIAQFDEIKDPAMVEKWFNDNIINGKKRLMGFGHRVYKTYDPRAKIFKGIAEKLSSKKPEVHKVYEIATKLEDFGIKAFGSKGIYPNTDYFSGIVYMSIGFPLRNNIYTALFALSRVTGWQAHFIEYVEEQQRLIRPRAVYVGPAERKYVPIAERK
PROCEDURE TEXT: fluorescence titration of the TpCSH6–OAA complex (CitMX formation); also competitive inhibition versus AcCoA, Ki =[…]
Type: binding
OBSERVABLE: pKd
Reminder that pKd is minus the log10 of a molar concentration.

In: Quickly give me recorded pKd for `CC(=O)CCCNC(=O)CCNC(=O)[C@H](O)C(C)(C)COP(=O)(O)OP(=O)(O)OC[C@H]1O[C@@H](n2cnc3c(N)ncnc32)[C@H](O)[C@@H]1OP(=O)(O)O`
Out: 5.82
